Values from ChEMBL document CHEMBL4229477

assay.system: Large neutral amino acids transporter small subunit 1 (Homo sapiens)
test.details: Cis-inhibition of human LAT1 expressed in TREx HEK293 cells at 200 uM assessed as inhibition of [3H]-gabapentin uptake at 200 uM preincubated for 3 mins at 37 degC followed by washing with choline buffer and measured after 3 hrs by scintillation counting analysis relative to BCH
Type: cell-based
Record form. Attribute: inhibition. Fill in for each entry.
Give the value in % but do not write % after it.

input: Write inhibition of COC(=O)c1cccc(C[C@H](N)C(=O)O)c1 ; system used: Large neutral amino acids transporter small subunit 1 (Homo sapiens)
output: 81

input: Write inhibition of CNC(=O)c1cccc(C[C@H](N)C(=O)O)c1 ; system used: Large neutral amino acids transporter small subunit 1 (Homo sapiens)
output: 88

input: Write inhibition of CSCC[C@](N)(Cc1ccccc1)C(=O)O ; system used: Large neutral amino acids transporter small subunit 1 (Homo sapiens)
output: 21

input: Write inhibition of N[C@@H](Cc1cccc(CO)c1)C(=O)O ; system used: Large neutral amino acids transporter small subunit 1 (Homo sapiens)
output: 99

input: Write inhibition of NCc1cccc(C[C@H](N)C(=O)O)c1 ; system used: Large neutral amino acids transporter small subunit 1 (Homo sapiens)
output: 27

input: Write inhibition of COC(=O)Cc1cccc(C[C@H](N)C(=O)O)c1 ; system used: Large neutral amino acids transporter small subunit 1 (Homo sapiens)
output: 72

input: Write inhibition of N[C@@H](Cc1c[nH]cn1)C(=O)O ; system used: Large neutral amino acids transporter small subunit 1 (Homo sapiens)
output: 92

input: Write inhibition of CC(C)C[C@](N)(Cc1ccccc1)C(=O)O ; system used: Large neutral amino acids transporter small subunit 1 (Homo sapiens)
output: 15

input: Write inhibition of N[C@H](Cc1c[nH]cn1)C(=O)O ; system used: Large neutral amino acids transporter small subunit 1 (Homo sapiens)
output: 33

input: Write inhibition of N[C@@H](Cc1cccc(C(=O)O)c1)C(=O)O ; system used: Large neutral amino acids transporter small subunit 1 (Homo sapiens)
output: 69

input: Write inhibition of CC(=O)c1cccc(C[C@H](N)C(=O)O)c1 ; system used: Large neutral amino acids transporter small subunit 1 (Homo sapiens)
output: 100

input: Write inhibition of N[C@@H](CCC(=O)O)C(=O)O ; system used: Large neutral amino acids transporter small subunit 1 (Homo sapiens)
output: -2.4

input: Write inhibition of COC(=O)c1cccc(C[C@@H](N)C(=O)O)c1 ; system used: Large neutral amino acids transporter small subunit 1 (Homo sapiens)
output: 40

###

Record form. Attribute: Activity. Fill in for each entry.
assay.system: Large neutral amino acids transporter small subunit 1 (Homo sapiens) (UniProt Q01650)
Sequence (Q01650 whole entry): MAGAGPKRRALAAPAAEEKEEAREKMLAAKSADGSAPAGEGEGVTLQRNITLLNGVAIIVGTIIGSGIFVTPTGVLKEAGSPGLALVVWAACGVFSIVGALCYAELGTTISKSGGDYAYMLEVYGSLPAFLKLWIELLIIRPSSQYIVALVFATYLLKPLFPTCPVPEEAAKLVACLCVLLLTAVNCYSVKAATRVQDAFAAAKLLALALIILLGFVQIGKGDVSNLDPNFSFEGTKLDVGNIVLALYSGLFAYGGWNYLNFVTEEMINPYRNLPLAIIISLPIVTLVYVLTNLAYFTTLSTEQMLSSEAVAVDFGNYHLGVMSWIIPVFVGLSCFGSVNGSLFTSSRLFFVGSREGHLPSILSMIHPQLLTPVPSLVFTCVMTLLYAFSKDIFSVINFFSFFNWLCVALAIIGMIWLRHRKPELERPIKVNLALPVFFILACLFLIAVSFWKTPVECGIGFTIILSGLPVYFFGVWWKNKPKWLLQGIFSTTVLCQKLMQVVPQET
test.details: Trans-stimulation of human LAT1 expressed in TREx HEK293 cells assessed as induction of [3H]-gabapentin efflux at 200 uM after 3 mins by scintillation counting analysis relative to L-phenylalanine
Assay type: cell-based
Give the value in % but do not write % after it.

input: Entry COC(=O)c1cccc(C[C@@H](N)C(=O)O)c1 needs its Activity filled in; supply it.
output: 41

input: Entry CSCC[C@H](N)C(=O)O needs its Activity filled in; supply it.
output: 89

input: Entry CC(C)[C@@H](N)C(=O)O needs its Activity filled in; supply it.
output: 41

input: Entry COC(=O)c1cccc(C[C@H](N)C(=O)O)c1 needs its Activity filled in; supply it.
output: 89
